# METHOD SUMMARY: Efflux ratio of permeability in human Caco2 cells after 2 hrs
# Format: ADME, cell-based
# EXPERIMENTAL CONDITIONS: Caco-2
PARAMETER: efflux ratio at 2 h

{"columns": ["SMILES STRUCTURE", "PARAMETER", "DATA VALUE"],
 "data": [
  ["Cc1ccc(Cc2c(O[C@@H]3O[C@H](CO)[C@@H](O)[C@H](O)[C@H]3O)n[nH]c2C(C)C)c(C)c1", "efflux ratio at 2 h", 0.092]
]}

###

# METHOD SUMMARY: Metabolic stability in rat intestinal microsomes assessed as compound remaining at 50 uM after 60 mins
# Type: ADME, Intestine
# EXPERIMENTAL CONDITIONS: read-out: Stability
PARAMETER: remaining at 1 h, 50 µM (%)

{"columns": ["SMILES STRUCTURE", "SCALE UNIT", "DATA VALUE"],
 "data": [
  ["Cc1cc(CCCC(=O)NC(C)(C)C(=O)N2CCNCC2)ccc1Cc1c(O[C@@H]2O[C@H](CO)[C@@H](O)[C@H](O)[C@H]2O)n[nH]c1C(C)C", "%", 76]
]}
